- System: Saccharomyces cerevisiae
- methodDescription: fraction of cells in G1 phase (DNA content, flow cytometry); higher = more cells with unreplicated DNA (G1 delay)
- details: temperature: 30 C; YPD; JTY2953 pdr5 snq2 (sensitized); drug added to: cultures diluted from stationary phase; 6-7 h
Where a name gives a salt, the structure may show the parent alone.
Threshold check on fraction of cells in G1 phase: at or above 0.5 gives Satisfied, strictly below gives Not satisfied.

The examples below pair each entry with its known result.
compound	system	classLabel
N=c1nc(N2CCCCC2)cc(N)n1O [Minoxidil] (95.5782 µM)	Saccharomyces cerevisiae	Satisfied
COc1cc2c(cc1OC)-c1c/c(=N\c3c(C)cc(C)cc3C)n(C)c(=O)n1CC2 [Trequinsin HCl] (45.2489 µM)	Saccharomyces cerevisiae	Not satisfied
O=C(C1CCCCC1)N1CC(=O)N2CCc3ccccc3C2C1 (stereo not drawn) [Praziquantel] (64.0173 µM)	Saccharomyces cerevisiae	Not satisfied

Exam item: decide whether the reported fraction of cells in G1 phase for COc1ccccc1OCCNCC(O)COc1cccc2[nH]c3ccccc3c12 (stereo not drawn) [Carvedilol] (49.2022 µM) is at least 0.5.
Satisfied

Reported fraction of cells in G1 phase reaches at least 0.5 for CN1CCN(C2=Nc3ccccc3Sc3ccc(Cl)cc32)CC1 [Clothiapine] (58.1596 µM) ?
Not satisfied

Confirm if fraction of cells in G1 phase reported for the compound COc1ccc(CC2c3cc(OC)c(OC)cc3CC[N+]2(C)CCC(=O)OCCCCCOC(=O)CC[N+]2(C)CCc3cc(OC)c(OC)cc3C2Cc2ccc(OC)c(OC)c2)cc1OC (stereo not drawn) [Atracurium besylate] (21.5246 µM) is 0.5 or above.
Not satisfied

###

- Tested on: Saccharomyces cerevisiae
- methodDescription: fraction of cells in G1 phase (DNA content, flow cytometry); higher = more cells with unreplicated DNA (G1 delay)
- details: temperature: 30 C; YPD; BY4741 PDR5+ SNQ2+; drug added to: actively dividing cells; 4.33 h
This section presents molecules with their documented fraction of cells in G1 phase values.
I'd appreciate a reply containing only the number, no unit.

> print(dat)
                                   molecule  measurement
1  CC(C)(C)C(=O)C(Oc1ccc(Cl)cc1)n1ccnc1 (centres undefined) [Climbazole] (68.3135 µM)        0.496
2  COc1c(N2CCNC(C)C2)c(F)cc2c(=O)c(C(=O)O)cn(C3CC3)c12 (centres undefined) [Gatifloxacin] (53.276 µM)        0.391
3  CO[C@@]12[C@H](COC(N)=O)C3=C(C(=O)C(C)=C(N)C3=O)N1C[C@@H]1N[C@@H]12 [Mitomycin c] (59.8203 µM)        0.399

As a next step, examine the molecule that follows.
Give me measured fraction of cells in G1 phase, please, for this molecule: CCOC(=O)C1=C(COCCN)NC(C)=C(C(=O)OC)C1c1ccccc1Cl (centres undefined) [Amlodipine] (48.9134 µM)
0.481

###

- Test system: Saccharomyces cerevisiae
- methodDescription: fraction of cells in G1 phase (DNA content, flow cytometry); higher = more cells with unreplicated DNA (G1 delay)
- details: temperature: 30 C; YPD; JTY2953 pdr5 snq2 (sensitized); drug added to: cultures diluted from stationary phase; 6-7 h
Where a name gives a salt, the structure may show the parent alone.
Overview of recorded fraction of cells in G1 phase for various molecules
Keep the answer to the number alone.

Below, each entry is followed by its recorded fraction of cells in G1 phase result.
molecule	system	fraction of cells in G1 phase
CC(CN1c2ccccc2Sc2ccccc21)N(C)C (stereo unspecified) [Promethazine HCl] (70.317 µM)	Saccharomyces cerevisiae	0.204
CC(C)Cc1ccc(C(C)C(=O)O)cc1 (stereo unspecified) [Ibuprofen] (96.9522 µM)	Saccharomyces cerevisiae	0.575
CN1CCCN=C1/C=C/c1cccs1 [Pyrantel pamoate] (33.6309 µM)	Saccharomyces cerevisiae	0.464

In one line, give reported fraction of cells in G1 phase of the entry CC(c1cc2ccccc2s1)N(O)C(N)=O (stereo unspecified) [Zileuton] (84.6401 µM) .
0.53

// Input: O=C(N[C@H](CO)[C@H](O)c1ccc([N+](=O)[O-])cc1)C(Cl)Cl [Chloramphenicol] (61.8937 µM) . Output its fraction of cells in G1 phase only.
0.482

Please supply the value of reported fraction of cells in G1 phase for the item CO/N=C(\C(=O)N[C@@H]1C(=O)N2C(C(=O)[O-])=C(C[N+]3(C)CCCC3)CS[C@H]12)c1csc(N)n1 [Cefepime] (41.6174 µM)
0.504

Please indicate fraction of cells in G1 phase recorded for O=C(O)COC(=O)Cc1ccccc1Nc1c(Cl)cccc1Cl [Aceclofenac] (56.4665 µM)
0.489

Hey, just so you know, these numbers are from the supplement of paper PMC3342239.
